Parameter: pIC50. Scope: all listed entries.
Target: recombinant human NF-kappaB-inducing kinase (NIK/MAP3K14) (Homo sapiens, UniProt Q99558)
Sequence (Q99558 whole entry): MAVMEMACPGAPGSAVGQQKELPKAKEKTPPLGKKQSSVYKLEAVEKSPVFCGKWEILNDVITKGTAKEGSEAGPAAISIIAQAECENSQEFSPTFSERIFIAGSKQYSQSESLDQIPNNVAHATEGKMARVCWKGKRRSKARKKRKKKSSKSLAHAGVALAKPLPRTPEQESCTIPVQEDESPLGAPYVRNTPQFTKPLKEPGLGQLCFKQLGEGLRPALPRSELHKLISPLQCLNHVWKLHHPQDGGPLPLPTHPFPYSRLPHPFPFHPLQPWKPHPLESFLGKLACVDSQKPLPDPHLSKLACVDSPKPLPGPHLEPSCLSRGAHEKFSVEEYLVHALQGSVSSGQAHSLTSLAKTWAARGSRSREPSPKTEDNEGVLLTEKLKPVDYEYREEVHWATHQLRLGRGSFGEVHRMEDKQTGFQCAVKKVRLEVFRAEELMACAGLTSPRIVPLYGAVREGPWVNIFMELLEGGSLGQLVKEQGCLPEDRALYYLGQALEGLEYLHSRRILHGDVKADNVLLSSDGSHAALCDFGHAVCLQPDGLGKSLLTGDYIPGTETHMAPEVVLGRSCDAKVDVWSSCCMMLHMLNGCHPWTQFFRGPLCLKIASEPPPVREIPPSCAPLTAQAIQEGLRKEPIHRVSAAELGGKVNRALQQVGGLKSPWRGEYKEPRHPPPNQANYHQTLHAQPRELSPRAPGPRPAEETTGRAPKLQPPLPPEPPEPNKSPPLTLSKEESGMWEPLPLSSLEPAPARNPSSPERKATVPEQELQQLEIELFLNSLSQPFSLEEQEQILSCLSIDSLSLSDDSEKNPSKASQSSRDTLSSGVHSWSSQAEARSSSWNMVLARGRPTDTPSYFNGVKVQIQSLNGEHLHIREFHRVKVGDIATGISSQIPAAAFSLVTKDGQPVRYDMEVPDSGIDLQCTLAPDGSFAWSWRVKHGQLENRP
Assay: Biological Assay B: inhibition of auto-phosphorylation of recombinant human NIK/MAP3K14 (AlphaScreen), performed at 2 locations
Assay type: biochemical
Conditions: location 1; AlphaScreen auto-phosphorylation; averaged values; read-out: Assay B location 1 IC50
Method: Inhibition of Auto-Phosphorylation of Recombinant Human NF-kappaB-Inducing Kinase (NIK/MAP3K14) Activity (AlphaScreen®) NIK/MAP3K14 auto-phosphorylation activity was measured using the AlphaScreen® (αscreen) format (Perkin Elmer). All compounds tested were dissolved in dimethyl sulfoxide (DMSO) and further dilutions were made in assay buffer. […] Protein A Acceptor and Glutathione-Donor beads were added before reading using an EnVision® Multilabel Plate Reader (Perkin Elmer). […]
pIC50 (log units): -log10 of the concentration in mol/L.

See these solved cases before continuing.
[[record]]
compound = "COc1cc(N2CC(C)(O)C2)c(Cl)cc1Nc1nccc(-c2cnc3c(c2)C(C)(CO)CN3)n1 (stereo not shown)"
recorded_number = 8.16

[[record]]
compound = "CN(C)CCOc1cc(N2CCOCC2)c(Cl)cc1Nc1nccc(-c2cnc3c(c2)C(C)(CO)CN3)n1 (single isomer, unassigned) [Compound 274]"
recorded_number = 5.57

[[record]]
compound = "COc1cc(N2CCOCC2)c(C#N)cc1Nc1nccc(-c2cnc3c(c2)C(C)(CO)CN3)n1 (stereo not shown) [Compound 4]"
recorded_number = 7.98

[[record]]
compound = "COCCOc1cc(N2CCOCC2)c(F)cc1Nc1nccc(-c2cnc3c(c2)C(C)(CO)CN3)n1 (stereo not shown)"
recorded_number = 6.72

[[record]]
compound = "COc1cc(-c2cncn2C)ccc1Nc1nccc(-c2cnc3c(c2)C(C)(CO)CN3)n1 (stereo not shown)"
recorded_number = 7.34

[[record]]
compound = "COc1cccc(F)c1Nc1nccc(-c2cnc3c(c2)C(C)(CO)CN3)n1 (stereo not shown)"
recorded_number = 6.04


Now look at this one.
pIC50 value, target or system recombinant human NF-kappaB-inducing kinase (NIK/MAP3K14) (Homo sapiens, UniProt Q99558), for COc1ccc(-c2cnn(C)c2)cc1Nc1nccc(-c2cnc3c(c2)C(C)(CO)CN3)n1 (stereo not shown) : 6.41

====

target: recombinant human NF-kappaB-inducing kinase (NIK/MAP3K14) (Homo sapiens, UniProt Q99558); assay: Biological Assay B: inhibition of auto-phosphorylation of recombinant human NIK/MAP3K14 (AlphaScreen), performed at 2 locations; format: biochemical; settings: location 2; AlphaScreen auto-phosphorylation; averaged values; read-out: Assay B location 2 IC50
Lab note: anything with IC50 below 10 nM is marked Fulfilled; values at 10 nM or higher are marked Not fulfilled.

See these solved cases before continuing.
[[record]]
molecule = "CC1(CO)CNc2ncc(-c3ccnc(Nc4cc(C#N)c(N5CCOCC5)cc4Cl)n3)cc21 (single isomer, unassigned) [Compound 259]"
assay_system = "recombinant human NF-kappaB-inducing kinase (NIK/MAP3K14) (Homo sapiens, UniProt Q99558)"
qualitative_label = "Fulfilled"

[[record]]
molecule = "COc1ccc(C#N)cc1Nc1nccc(-c2cnc3c(c2)C(C)(CO)CN3)n1 (single isomer, unassigned) [Compound 248]"
assay_system = "recombinant human NF-kappaB-inducing kinase (NIK/MAP3K14) (Homo sapiens, UniProt Q99558)"
qualitative_label = "Fulfilled"

[[record]]
molecule = "CC(=O)NCc1ccc(Nc2nccc(-c3cnc4c(c3)C(C)(C)CN4)n2)c(OC(F)F)c1"
assay_system = "recombinant human NF-kappaB-inducing kinase (NIK/MAP3K14) (Homo sapiens, UniProt Q99558)"
qualitative_label = "Fulfilled"

[[record]]
molecule = "CCN1CCC(Oc2ccc(Nc3nccc(-c4cnc5c(c4)C(C)(CO)CN5)n3)c(OC)c2)C1 (stereo not shown)"
assay_system = "recombinant human NF-kappaB-inducing kinase (NIK/MAP3K14) (Homo sapiens, UniProt Q99558)"
qualitative_label = "Not fulfilled"


*Q* I'd appreciate it if you could check whether CC1(CO)CNc2ncc(-c3ccnc(Nc4ccccc4Cl)n3)cc21 (stereo not shown) has IC50 smaller than 10 nM.
*A* Not fulfilled

*Q* I'd appreciate it if you could check whether Cc1cc(C(=O)NC2CN(C)C2)ccc1Nc1nccc(-c2cnc3c(c2)C(C)(C)CN3)n1 has IC50 smaller than 10 nM.
*A* Fulfilled

*Q* I'd appreciate it if you could check whether COc1cc(N2CCC(OC)CC2)ccc1Nc1nccc(-c2cnc3c(c2)C(C)(CO)CN3)n1 (stereo not shown) has IC50 smaller than 10 nM.
*A* Not fulfilled

====

Parameter: log10 of IC50. Scope: all listed entries.
target: recombinant human NF-kappaB-inducing kinase (NIK/MAP3K14) (Homo sapiens); test: Biological Assay B: inhibition of auto-phosphorylation of recombinant human NIK/MAP3K14 (AlphaScreen), performed at 2 locations; assay type: biochemical; conditions: location 2; AlphaScreen auto-phosphorylation; averaged values; read-out: Assay B location 2 IC50
Give log10 of IC50, with IC50 taken in nM.

[[record]]
compound = "COc1ccc(C(F)(F)F)cc1Nc1nccc(-c2cnc3c(c2)C(C)(CO)CN3)n1 (stereo not drawn) [Compound 173]"
assay_system = "recombinant human NF-kappaB-inducing kinase (NIK/MAP3K14) (Homo sapiens)"
quantity_measured = "log10 of IC50"
recorded_number = 1.00

[[record]]
compound = "COc1cc(N2CC(C)(C)C2)c(Cl)cc1Nc1nccc(-c2cnc3c(c2)C(C)(CO)CN3)n1 (stereo not drawn) [Compound 304]"
assay_system = "recombinant human NF-kappaB-inducing kinase (NIK/MAP3K14) (Homo sapiens)"
quantity_measured = "log10 of IC50"
recorded_number = 0.77

[[record]]
compound = "COc1cc(N2CCC(F)(F)CC2)ccc1Nc1nccc(-c2cnc3c(c2)C(C)(CO)CN3)n1 (stereo not drawn) [Compound 217]"
assay_system = "recombinant human NF-kappaB-inducing kinase (NIK/MAP3K14) (Homo sapiens)"
quantity_measured = "log10 of IC50"
recorded_number = 1.44

[[record]]
compound = "COCCCN(C)c1cc(OC)c(Nc2nccc(-c3cnc4c(c3)C(C)(CO)CN4)n2)cc1Cl (stereo not drawn) [Compound 252]"
assay_system = "recombinant human NF-kappaB-inducing kinase (NIK/MAP3K14) (Homo sapiens)"
quantity_measured = "log10 of IC50"
recorded_number = 0.87


# compound COc1cc(CN2CCOCC2)c(Cl)cc1Nc1nccc(-c2cnc3c(c2)C(C)(CO)CN3)n1 (stereo not drawn) [Compound 324] ; its log10 of IC50 = 0.58

# compound COc1cc(C(=O)NC2CCN(C)CC2)ccc1Nc1nccc(-c2cnc3c(c2)C(C)(C)CN3)n1 [Compound 60] ; its log10 of IC50 = 0.08

====

biological target: recombinant human NF-kappaB-inducing kinase (NIK/MAP3K14) (Homo sapiens, UniProt Q99558); experiment: Biological Assay B: inhibition of auto-phosphorylation of recombinant human NIK/MAP3K14 (AlphaScreen), performed at 2 locations; format: biochemical; details: location 1; NIK auto-phosphorylation, AlphaScreen; averaged values; read-out: Assay B location 1 IC50
Lab note: anything with IC50 below 20 nM is marked MET; values at 20 nM or higher are marked NOT MET.

See these solved cases before continuing.
[[record]]
molecule = "COc1ccc(Cl)cc1Nc1nccc(-c2cnc3c(c2)C(C)(C)CN3)n1"
qualitative_label = "NOT MET"

[[record]]
molecule = "COc1cc(C(=O)NC2CCOCC2)ccc1Nc1ncc(Cl)c(-c2cnc3c(c2)C(C)(CO)CN3)n1 (single isomer, unassigned) [Compound 350]"
qualitative_label = "NOT MET"

[[record]]
molecule = "COc1cc(N2CC3(CCOCC3)C2)c(Cl)cc1Nc1ncc(F)c(-c2cnc3c(c2)C(C)(CO)CN3)n1 (stereo not shown) [Compound 346]"
qualitative_label = "MET"

[[record]]
molecule = "COc1cc(N2CCC(O)CC2)c(Cl)cc1Nc1nccc(-c2cnc3c(c2)C(C)(CO)CN3)n1 (single isomer, unassigned) [Compound 16]"
qualitative_label = "MET"


Proceed to the following item.
*Q* I'd appreciate it if you could check whether COc1ccc(Cl)cc1Nc1nccc(-c2cnc3c(c2)C(C)(CO)CN3)n1 (stereo not shown) has IC50 smaller than 20 nM.
*A* MET

====

molecular target: recombinant human NF-kappaB-inducing kinase (NIK/MAP3K14) (Homo sapiens, UniProt Q99558); experiment: Biological Assay A: inhibition of recombinant human NF-kappaB-inducing kinase (NIK/MAP3K14) activity (MBP phosphorylation, Mesoscale); details: MSD MBP; averaged over all measurements on all batches; read-out: Assay A Biochemical (MSD MBP) IC50
Parameter: pIC50. Scope: all listed entries.
pIC50 (log units): -log10 of the concentration in mol/L.

See these solved cases before continuing.
[[record]]
compound = "CCC(=O)NCc1ccc(Nc2nccc(-c3cnc4c(c3)C(C)(C)CN4)n2)c(C)c1"
recorded_number = 8.17

[[record]]
compound = "Cc1cc(C(=O)NC2CCOCC2)ccc1Nc1nccc(-c2cnc3c(c2)C(C)(CO)CN3)n1 (stereo not shown)"
recorded_number = 7.67

[[record]]
compound = "Cc1cc(C(=O)N2CC(C)(O)C2)ccc1Nc1nccc(-c2cnc3c(c2)C(C)(C)CN3)n1"
recorded_number = 7.40


Now look at this one.
# compound Cc1cc(C(=O)NC2CN(C)C2)ccc1Nc1nccc(-c2cnc3c(c2)C(C)(C)CN3)n1 ; its pIC50 = 7.49
